test_system: T1, TDP-217 peptide (human)
T1 construct: 8-mer of human TDP-43; same ELISA method as for the biotinylated 15-mers
T1 peptide: VMDVFIPK
test: indirect ELISA, 8-mer peptide library
result_type: binding result

>>> result("ACI-7062-401A2-Ab2 (antibody, IgG1, V domains shown, also called 401A2C6; clone 2) VH: DVQLVESGGGLVQPGGSRRLSCAASGFTFSRFGMHWVRQAPEKGLEWVAYIRSGSDIIYYADSVKGRFTISRDNPENTLFLQMTSLRSEDTAMYYCARSGTTVPFDYWGQGTSLTVSS VL: DIVMTQSPSSLAMSVGQKVTMSCKSSQSLLNSGDQKNYLAWYQQKPGQSPELLLYFASTRASGVPDRFIGSGSGTDFSLTISSVQAEDLADYFCQQHYSIPLTFGAGTKLELKR")
"no binding"
>>> result("ACI-7062-415C4-Ab1 (antibody, IgG1, V domains shown, also called 415C4C6; clone 14) VH: QVTLKESGPGILQPSQTLSLTCSFSGFSLSTYGIGVGWIRQPSGKGLEWLAHIWWNDNKYYKTALKSRLTISKDTSNNQVFLKIASVDTADSATYYCARVYGNLYYFGYWGQGTTLTVSS VL: DVLMTQTPLSLPVSLGDQASISCRSSQSIVHSTGNTYLEWYLQKPGQSPKLLIYKVSNRFSGVPDRFSGSGSGTDFTLKISRVEAEDLGVYYCFQGSRVPTFGAGTKLELKR")
"no binding"
>>> result("ACI-7062-406E3-Ab2 (antibody, IgG2a, V domains shown, also called 406E3G10; clone 6) VH: QVTLKESGPAILQPSQTLSLTCSFSGFSLTTYGIGVGWIRQPSGKGLEWLAHIWWNDNKYYNTALKSRLTVSKDTSNNQVFLKIASVDTADTATYYCARVYGNLYYFAYWGQGTTLTVSS VL: DVLMTQTPLSLPVSLGDRASISCRSSQSIVHRSGNTYLEWYLQKPGQSPKLLIYKVSNRFSGVPDRFSGSGSGTDFTLKISRVEAEDLGVYYCFQGSHVPTFGAGTKLELKR")
"no binding"
